Values were extracted from patent US20230293535A1.

- System: WT EGFR cell line A-431
- experiment summary: Cell proliferation, WT EGFR A431 (CellTiter-Glo, 72 h);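 further: proliferation from a luminescent ATP viability signal, expressed as 100 × (treated minus time-zero plate) over (DMSO control minus time-zero plate), cells grown with 10% FBS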
- Format: cell-based
- measurement context: Homo sapiens, A-431, 72 h, A431, 72 h proliferation; read-out: EGFR WT A431 GI50
outcome measure: GI50 (nM)

Form field: GI50 recorded for "C=CC(=O)Nc1cc(Nc2ncnc(Nc3ccc(Cl)c(F)c3C(C)(C)O)n2)c(OC)cc1N(C)CCN(C)C" with WT EGFR cell line A-431 (enter value)
29.1

Form field: GI50 recorded for "C=CC(=O)Nc1cc(Nc2ncnc(Nc3cc(C4CC4)c(F)cc3C(C)(C)O)n2)c(OC)cc1N(C)CCN(C)C" with WT EGFR cell line A-431 (enter value)
11.6

Form field: GI50 recorded for C=CC(=O)N1CCC(Oc2cc3c(Nc4ccc(Cl)c(Cl)c4F)ncnc3cc2OC)CC1 [Poziotinib, reference compound] with WT EGFR cell line A-431 (enter value)
0.5

Form field: GI50 recorded for "C=CC(=O)Nc1cc(Nc2ncc(OC)c(Nc3cc(Cl)c(F)cc3C(C)(C)O)n2)c(OC)cc1N(C)CCN(C)C" with WT EGFR cell line A-431 (enter value)
35.7

Form field: GI50 recorded for "C=CC(=O)Nc1cc(Nc2ncnc(Nc3cc4ccn(C)c4cc3C(C)(C)O)n2)c(OC)cc1N(C)CCN(C)C" with WT EGFR cell line A-431 (enter value)
6

(I) C=CC(=O)Nc1cc(Nc2ncnc(Nc3cnc(C)cc3C(C)(C)O)n2)c(OC)cc1N(C)CCN(C)C
(II) C=CC(=O)Nc1cc(Nc2ncnc(Nc3cc(F)c(Cl)cc3C(C)(C)O)n2)c(OC)cc1N(C)CCN(C)C
(III) C=CC(=O)Nc1cc(Nc2ncnc(Nc3cc(Cl)c(F)cc3C(C)(C)O)n2)c(OC)cc1N1CC[C@H](N(C)C)C1
(IV) C=CC(=O)Nc1cc(Nc2ncnc(Nc3cc(Cl)c(Cl)cc3C(C)(C)O)n2)c(OC)cc1N1CC[C@@H]1CN(C)C
(V) C=CC(=O)Nc1cc(Nc2ncnc(Nc3cc(F)c(Cl)cc3C(C)(C)O)n2)c(OC)cc1N1CCC[C@@H]1CN(C)C
// ranking: key=GI50, reverse=True Return value: ordered labels per request.
I, IV, III, II, V

###

- experiment summary: In vitro rat hepatocytes clearance assay
- measurement context: male, rat, cryopreserved rat hepatocytes (suspension), rat hepatocytes Clint (µL/min/10^6cells), 1 µM-range incubation up to 100 min
outcome measure: hepatocyte CLint at 1 µM (µL/min/1e6 cells)

// hepatocyte CLint at 1 µM lookup, key: C=CC(=O)Nc1cc(Nc2ncnc(Nc3cc(Cl)c(F)cc3C(C)(C)O)n2)c(OC)cc1N1CC[C@@H](N(C)C)C1 [Compound 33]
6.99

// hepatocyte CLint at 1 µM lookup, key: C=CC(=O)Nc1cc(Nc2nccc(Nc3cc(Cl)c(F)cc3C(C)(C)O)n2)c(OC)cc1N1C[C@@H]2CN(C)C[C@@H]21 [Compound 96]
13.2

// hepatocyte CLint at 1 µM lookup, key: C=CC(=O)Nc1cc(Nc2nccc(Nc3cc(Cl)c(Cl)cc3C(C)(C)O)n2)c(OC)cc1N1CC[C@@H](N(C)C)C1 [Compound 68]
17.5

// hepatocyte CLint at 1 µM lookup, key: C=CC(=O)Nc1cc(Nc2nccc(Nc3cc(Cl)c(F)cc3C(C)(C)O)n2)c(OC)cc1N1CC[C@@H]1CN(C)C [Compound 53]
12.3

// hepatocyte CLint at 1 µM lookup, key: C=CC(=O)Nc1cc(Nc2ncnc(Nc3cc(Cl)c(Cl)cc3C(C)(C)O)n2)c(OC)cc1N1CC[C@@H](N(C)C)C1 [Compound 61]
7.9

(1) C=CC(=O)Nc1cc(Nc2ncnc(Nc3cc(Cl)c(F)cc3C(C)(C)O)n2)c(OC)cc1N1C[C@@H](F)[C@@H](N(C)C)C1 [Compound 93]
(2) C=CC(=O)Nc1cc(Nc2ncnc(Nc3cc(Cl)c(F)cc3C(C)(C)O)n2)c(OC)cc1N(C)CCN(C)C [Compound 11]
(3) C=CC(=O)Nc1cc(Nc2ncnc(Nc3cc(F)c(Cl)cc3C(C)(C)O)n2)c(OC)cc1N1CC[C@@H](N(C)C)C1 [Compound 51]
(4) C=CC(=O)Nc1cc(Nc2nccc(Nc3cc(Cl)c(F)cc3C(C)(C)O)n2)c(OC)cc1N1C[C@@H](F)[C@@H](N(C)C)C1 [Compound 79]
// ranking: key=hepatocyte CLint at 1 µM, reverse=True Return value: ordered labels per request.
2, 4, 1, 3
(2: 161 µL/min/1e6 cells, 4: 24.1 µL/min/1e6 cells, 1: 11.5 µL/min/1e6 cells, 3: 5.97 µL/min/1e6 cells)
